tested on: UACC-257 melanoma; experiment: NCI tumour cell line growth inhibition, 48 h
REPORTED_ENDPOINT: TGI

A selection of reference data follows.
MOLECULE: Fc1cccc(C2SCc3nc4cc5ccccc5cc4n32)c1 (stereo not drawn)
RESULT: > 100 µM
//
MOLECULE: O=C(Cc1ccccc1)N/N=C(/c1nc2ccc([N+](=O)[O-])cc2[nH]c1=O)C(O)c1ccc(C(O)/C(=N/NC(=O)Cc2ccccc2)c2nc3ccc([N+](=O)[O-])cc3[nH]c2=O)cc1 (stereo not drawn)
RESULT: > 100 µM

// below: TGI requested for another molecule
Record lookup: for UACC-257 melanoma, what TGI belongs to O=C(O)C1=CN(c2ccncc2)C(c2ccco2)=CC1c1ccccc1[N+](=O)[O-] (stereo not drawn) ? 5.35 µM
